Hello, the source for this data is ChEMBL document CHEMBL1125137, in case you need it.

- TARGET ENTITY: Glutamate [NMDA] receptor
- ASSAY COMMENT: In vitro inhibitory activity against [3H](+)-MK-801 binding to PCP receptor in guinea pig brain membrane homogenates
- Type: cell membranes, Cavia porcellus
Rule: IC50 below 5 µM gives condition met, anything at or above gives condition not met.

                                    compound     discrete_label
 0         CCCc1cccc(NC(=N)Nc2cccc(CCC)c2)c1      condition met
 1       N=C(Nc1cccc2ccccc12)Nc1cccc2ccccc12      condition met
 2  N=C(Nc1ccccc1/C=C/c1ccccc1)NC12CC3CC(CC(C3)C1)C2      condition met
 3           CCc1ccc(NC(=N)Nc2ccc(CC)cc2)cc1  condition not met
 4             Cc1cccc(NC(=N)Nc2cccc(C)c2)c1      condition met
 5            Cc1cc(N)ccc1N=C(N)Nc1cccc(O)c1  condition not met
 6  N=C(NC1C[C@H]1c1ccccc1)NC12CC3CC(CC(C3)C1)C2 (some centres undefined)  condition not met
 7                  NC1=Nc2ccccc2-c2ccccc2N1  condition not met
 8  NC(=Nc1ccccc1-c1ccccc1)Nc1ccccc1-c1ccccc1  condition not met
 9             Cc1ccc(N=C(N)Nc2ccc(C)cc2)cc1  condition not met
10  N/C(=N\c1ccccc1[N+](=O)[O-])NC12CC3CC(CC(C3)C1)C2  condition not met
11     CC(C)c1ccc(NC(=N)Nc2ccc(C(C)C)cc2)cc1  condition not met
12                 NC(=Nc1ccccc1I)Nc1ccccc1I      condition met
13  NC(=Nc1ccccc1-c1ccccc1)NC12CC3CC(CC(C3)C1)C2  condition not met
14  CC(=O)[C@H]1CCC2C3CC=C4CC(/N=C(\N)Nc5ccccc5C)CC[C@]4(C)C3CC[C@@]21C (some centres undefined)  condition not met
15           CCc1cccc(NC(=N)Nc2cccc(CC)c2)c1      condition met
16   CC(C)(C)c1ccccc1N=C(N)Nc1ccccc1C(C)(C)C  condition not met
17  Cc1ccccc1NC(=N)Nc1ccccc1C [DITOLYLGUANIDINE]  condition not met
18  Cc1ccccc1/N=C(\N)NC1C2CC3CC(C2)CC1C3 (centres undefined)  condition not met
19    NC(=Nc1ccccc1-c1ccccc1)Nc1cccc2ccccc12  condition not met
20               N=C1N(c2ccccc2)CCN1c1ccccc1  condition not met
21  Cc1ccccc1N/C(N)=N/C1CC[C@@]2(C)C(=CCC3C2CC[C@@]2(C)C3CC[C@@H]2C(C)CCCC(C)C)C1 (some centres undefined)  condition not met
22  Cc1ccccc1/N=C(\N)NC12CC3CC(C)(CC(C)(C3)C1)C2      condition met
